Tested on: BT-549 breast
Experiment Description: NCI-60 one-dose screen, 48 h
Measurement Conditions: 10 µM
Compounds without any hit were thinned out: in the full panel of roughly 83,000, 20% have a hit. Activity calls are given as the source filed them. The calls were made as follows: active = growth percent below 10; inactive = the rest.
Answer with one of the outcomes given here: TRUE for active, FALSE for inactive

| Molecule | Measured On | Discrete Label |
| --- | --- | --- |
| COc1ccc2cc([C@H](C)C(=O)NCc3ccccc3)ccc2c1 | BT-549 breast | FALSE |

Exam item: Could you check what this test reported for CN1C/C(=C\c2ccc(O)cc2O)c2[o+]c3cc(O)ccc3cc2C1 ?
Marked response: FALSE

Exam item: Hello, I am checking results. What call was entered for Cc1cc(=O)oc2cc(OCCCCOc3ccc(/C=C/C(=O)Nc4cccc(Cl)c4)cc3)ccc12 ?
Marked response: FALSE

Exam item: Per the records of this test, what outcome belongs to CN1CCO/C1=C(/NC(=O)c1ccc(Cl)cc1)[P+](c1ccccc1)(c1ccccc1)c1ccccc1 ?
Marked response: FALSE

Exam item: State the result this test recorded for O=C(Nc1cccc(-c2cn(-c3ccc4oc(=O)ccc4c3)nn2)c1)Nc1cc(C(F)(F)F)cc(C(F)(F)F)c1 .
Marked response: TRUE

Exam item: Tell me the assay call for Cc1ccc(/C=C(\C#N)n2nnc3c(F)cccc32)cc1 please.
Marked response: TRUE

Exam item: So what was the verdict on O=C(Cc1ccc2c(c1)CN(C1CCC(=O)NC1=O)C2=O)NCc1cccc2ccccc12 (centres undefined) in this test?
Marked response: TRUE

Exam item: Test call, this molecule: Cc1ccc(NC(=O)NCn2c(=O)[nH]c3ccccc3c2=O)cc1
Marked response: FALSE

Exam item: How was [2H]C([2H])([2H])Oc1ccc2ncc(C#Cc3cncc(C(=O)Nc4ccc(CN5CCN(C)CC5)c(C(F)(F)F)c4)c3)n2n1 classified in this test?
Marked response: TRUE

---

Tested on: SW-620 colon
Experiment Description: NCI-60 one-dose screen, 48 h
Measurement Conditions: 10 µM
Compounds without any hit were thinned out: in the full panel of roughly 83,000, 20% have a hit. Active and inactive are the calls of the source. The calls were made as follows: active = growth percent below 10; inactive = the rest.
Answer with one of the outcomes true (1) for active, false (0) for inactive

Solved cases (8 shown):
| Compound | Measured On | Discrete Label |
| --- | --- | --- |
| Cc1ccc(/C(N)=N/c2sc(-c3ccccc3)nc2-c2ccccc2)cc1 | SW-620 colon | false (0) |
| CC(C)CCSc1nc(NC2CC2)c(C#N)c(-c2ccc(C(C)C)cc2)n1 | SW-620 colon | false (0) |
| CCN1CCN(c2ccc(NC(=O)Nc3ccc4c(c3F)CCN4c3ccnc(C(=O)NC)c3)cc2C(F)(F)F)CC1 | SW-620 colon | true (1) |
| O=C(CNc1nc(-c2ccccc2)cs1)Nc1ccc(Br)cc1 | SW-620 colon | true (1) |
| COc1ccc2[nH]c(=O)c(CSc3ccc(Nc4nccc(-c5ccc(Cl)cc5)n4)cc3)cc2c1 | SW-620 colon | false (0) |
| CN(CCO)c1oc(-c2ccccc2)nc1[P+](c1ccccc1)(c1ccccc1)c1ccccc1 | SW-620 colon | false (0) |
| COc1cc(C2CC(c3ccc(C)cc3)=Nc3c(N)nc(N)nc3N2)ccc1Oc1nc(Nc2ccc(F)cc2)nc(N(C)C)n1 (centres undefined) | SW-620 colon | false (0) |
| CCCCOc1ccc(Nc2nc3ccccc3nc2Nc2ccc(OCCCC)cc2)cc1 | SW-620 colon | false (0) |

Continue with the compound presented below.
Exam item: Can you look up the reported call for CC1(c2ccccc2)NC(=O)N(CC(=O)Nc2ccc(C(=O)/C=C/c3ccc(Cl)cc3)cc2)C1=O (centres undefined) for me?
Marked response: true (1)
